Molecular target: Axl (Homo sapiens (Human), UniProt P30530)
Sequence (P30530 26-894 limits assumed): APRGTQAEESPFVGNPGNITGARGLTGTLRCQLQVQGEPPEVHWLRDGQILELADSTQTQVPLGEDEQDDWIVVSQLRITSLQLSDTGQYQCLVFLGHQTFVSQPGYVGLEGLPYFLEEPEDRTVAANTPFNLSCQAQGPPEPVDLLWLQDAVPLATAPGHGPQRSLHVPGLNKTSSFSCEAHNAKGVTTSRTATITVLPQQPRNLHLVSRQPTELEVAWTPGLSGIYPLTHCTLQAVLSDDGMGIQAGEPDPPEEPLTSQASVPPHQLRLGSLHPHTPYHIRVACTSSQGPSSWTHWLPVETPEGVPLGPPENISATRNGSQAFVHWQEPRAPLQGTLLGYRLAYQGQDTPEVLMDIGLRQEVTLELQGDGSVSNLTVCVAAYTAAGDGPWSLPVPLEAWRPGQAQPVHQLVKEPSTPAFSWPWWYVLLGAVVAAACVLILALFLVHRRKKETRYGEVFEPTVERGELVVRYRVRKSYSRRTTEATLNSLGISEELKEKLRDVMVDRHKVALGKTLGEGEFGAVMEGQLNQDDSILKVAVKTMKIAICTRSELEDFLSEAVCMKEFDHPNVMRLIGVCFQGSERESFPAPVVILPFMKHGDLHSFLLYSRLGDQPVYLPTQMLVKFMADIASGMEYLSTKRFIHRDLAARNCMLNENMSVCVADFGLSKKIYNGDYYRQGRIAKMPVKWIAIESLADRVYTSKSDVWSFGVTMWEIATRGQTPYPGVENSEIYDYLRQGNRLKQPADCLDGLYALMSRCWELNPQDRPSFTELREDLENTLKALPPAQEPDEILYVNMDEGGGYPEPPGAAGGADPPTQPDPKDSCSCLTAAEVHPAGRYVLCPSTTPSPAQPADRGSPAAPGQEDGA
Settings: read-out: IC50 Axl
readoutKind: IC50 (nM)

- compound: "CCCCNc1ncc(-c2cc(Nc3cccc(C(C)(C)C)c3)ncn2)c(N[C@H]2CC[C@H](O)CC2)n1 [UNC4333A]"
  unitsOfMeasure: "nM"
  IC50: 30000

[1] CCCCNc1ncc(C(=O)NCc2cccs2)c(N[C@H]2CC[C@H](O)CC2)n1 [UNC2762A]
[2] CCCCNc1ncc(C(=O)NCc2ccc(-n3cnc(-c4ccccc4)c3)cc2)c(N[C@H]2CC[C@H](O)CC2)n1 [UNC2969A]
input: For the pair 1 and 2 , which entry has the numerically smaller recorded IC50? Your answer should be the label of the entry you select.
output: 1

[1] CCCCNc1ncc(-c2ccc(CC3CCNC3)cn2)c(N[C@H]2CC[C@H](O)CC2)n1 (some centres unmarked) [UNC4386A]
[2] CCCCNc1ncc(-c2ccc(C3(N4CCOCC4)CC3)cn2)c(NC2CCC(O)CC2)n1 (centres unmarked) [UNC3664A]
[3] CCCCNc1ncc(-c2ccccn2)c(Nc2ccc(O)cc2)n1 [UNC2998A]
input: Thanks in advance: please rank these 3 entries by IC50, highest to lowest. The labels, placed in the requested order, form the answer.
output: 3, 2, 1

[I] CCCCNc1ncc(-c2ccc(C3(N4CCOCC4)CCCC3)cn2)c(NC2CCC(O)CC2)n1 (centres unmarked) [UNC3667A]
[II] CCCCNc1ncc(-c2ncc(CN3CCN(C)CC3)s2)c(N[C@H]2CC[C@H](O)CC2)n1 [UNC3121A]
input: I or II : whose IC50 is greater? Return value: the label identifying the chosen record.
output: II
(II: 96 nM, I: 47 nM)

All values here come from patent US9649309B2.
